Cited source: the supplement of paper PMC12645437

Consider the following sequences; for each one, report its log2 fold change of degron read counts.
# Subject of test: T1, CRBN, Q96SW2
# T1 chain: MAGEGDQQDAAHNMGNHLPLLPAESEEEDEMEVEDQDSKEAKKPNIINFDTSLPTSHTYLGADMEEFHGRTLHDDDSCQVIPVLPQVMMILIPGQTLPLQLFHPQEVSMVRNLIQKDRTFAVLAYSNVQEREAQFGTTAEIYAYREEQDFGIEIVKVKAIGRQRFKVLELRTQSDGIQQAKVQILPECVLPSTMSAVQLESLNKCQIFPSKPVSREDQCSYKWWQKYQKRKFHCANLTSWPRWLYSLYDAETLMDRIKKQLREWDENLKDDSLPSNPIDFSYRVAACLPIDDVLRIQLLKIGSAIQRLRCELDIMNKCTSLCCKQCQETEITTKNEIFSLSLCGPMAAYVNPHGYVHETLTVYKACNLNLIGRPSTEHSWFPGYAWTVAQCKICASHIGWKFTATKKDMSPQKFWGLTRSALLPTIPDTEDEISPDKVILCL
# Assay comment: log2 fold change of degron read counts, EGFP-low vs EGFP+ sorted cells (limma voom), compound-induced degradation; higher = more compound-induced degradation of the degron-EGFP fusion; degrons are variants of IKZF1/3 zinc finger 2; compound dose not given here;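 further: pooled lentiviral library of zinc finger degron-EGFP fusions in mCherry-positive Jurkat cells, FACS-sorted after compound exposure, with degron abundance counted by next-generation sequencing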
# Setup conditions: Jurkat; 18 h; compound: thalidomide
Over roughly 8,300 sequences, “log2 fold change of degron read counts, EGFP-low vs EGFP+ sorted cells (limma voom), compound-induced degradation” has its median near -1.1; the highest 2% begin near 3.2. The sample as a whole holds a higher share of the highest values than the screen did.
Numbers only.

FVCEICGAHFTQKGNLLRHIKL [46F_47V_49E_50I_52G_53A_54H_55F_67L_, Q9UKT9] : 1.95
FLCDICGARFTQKGNLLRHIKL [46F_47L_49D_50I_52G_53A_54R_55F_67L_, Q9UKT9] : 0.425
FICEVCGARFTQKGNLLRHIKL [46F_47I_49E_50V_52G_53A_54R_55F_67L_, Q9UKT9] : 2.6
FCCDICGAEFTQKGNLLRHIKL [46F_47C_49D_50I_52G_53A_54E_55F_67L_, Q9UKT9] : -0.702
FTCEVCGAMFTQKGNLLRHIKL [46F_47T_49E_50V_52G_53A_54M_55F_67L_, Q9UKT9] : 1.62
FFCEICGHNFTQKGNLLRHIKL [46F_47F_49E_50I_52G_53H_54N_55F_67L_, Q9UKT9] : -2.84
FWCDICGARFTQKGNLLRHIKL [46F_47W_49D_50I_52G_53A_54R_55F_67L_, Q9UKT9] : 0.265
FYCEVCGADFTQKGNLLRHIKL [46F_47Y_49E_50V_52G_53A_54D_55F_67L_, Q9UKT9] : -1.36

Could I get log2 fold change of degron read counts for every one of these entries?
1. FACDICGARFTQKGNLLRHIKL [46F_47A_49D_50I_52G_53A_54R_55F_67L_, Q9UKT9]
2. FRCEVCGANFTQKGNLLRHIKL [46F_47R_49E_50V_52G_53A_54N_55F_67L_, Q9UKT9]

Result:
[-0.979, 0.852]
